# System: NCI-H322M lung
# assay protocol: NCI-60 one-dose screen, 48 h (100 = growth as untreated, 0 = no growth, -100 = all killed)
# assay setup: 10 µM unless noted
This is part of a sample that, as a whole, favours compounds with a hit. Of some 83,000 tested, about 20% had one in any assay.
Labelling: growth reported below 90% becomes Yes; at or above becomes No.

>>> label_value("O=C(N/N=C/c1ccc(O)c(O)c1)c1sc2ccccc2c1Cl")
"No"
>>> label_value("CCN(CC)CCOC(COc1cc(C)cc(C)c1)COc1cc(C)cc(C)c1")
"Yes"
>>> label_value("COc1c(Cl)cc(Cl)c2ccc(C=C3C(=O)NC(=S)NC3=O)nc12")
"No"

growth under 90%? Item: CC(=O)NCCCS(=O)(=O)O No

Does the reported growth of the following compound sit strictly below 90%? N#Cc1c(NC(=O)c2cccc(Br)c2)sc2c1CCCC2 Yes

* * *

# Test system: NCI-H460 lung
# assay protocol: NCI-60 one-dose screen, 48 h
# assay setup: 10 µM unless noted
Compounds without any hit were thinned out: in the full panel of roughly 83,000, 20% have a hit. Active and inactive are the calls of the source. Rule for the calls: active = growth percent below 10; inactive = the rest.
Tick one outcome: 1.0 = active, 0.0 = inactive

>>> label_value("Cc1nn(-c2ccccc2)c(N2CCOCC2)c1/C=N/N=c1\\sc2ccccc2n1C")
0.0

Which outcome was entered for the molecule COc1cc(-c2nc3occn3c2-c2ccnc(NCCNS(=O)(=O)c3ccc(Cl)cc3)n2)ccc1F in this test? 0.0

# lookup: test call for C=C1C(=O)O[C@H]2[C@H]1CC/C(COC(=O)CCCc1c[nH]c3ccccc13)=C\CC[C@@]1(C)O[C@@H]21 0.0

Lab log entry: CCCCCCCC(=O)Nc1nc2[nH]c(CN3CCN(Cc4cccc(I)c4)CC3)c(CN3CCN(Cc4cccc(I)c4)CC3)c2c(=O)[nH]1 — outcome as called in the assay? 1.0

Fill in: this test's call for COc1cc(C2NC(c3cc(OC)c(OC)c(OC)c3)C(C#N)(C#N)C2(C#N)C#N)cc(OC)c1OC (configuration not stated) is ___ 0.0

Recorded test outcome, item O=C(Nc1ccc(Nc2ncccn2)cc1)NC1C=c2ccccc2=CC1 (configuration not stated) 0.0

Assay result, entry CC1CCN(C(=O)OCc2nc3nc(Cl)nc(N4CCOCC4)c3[nH]2)CC1 — outcome? 0.0

* * *

# Test system: MOLT-4 leukemia
# assay protocol: NCI-60 one-dose screen, 48 h
# assay setup: 10 µM unless noted
The panel holds about 83,000 compounds, 20% with a hit somewhere; the sample as a whole holds those more often. Active and inactive are the calls of the source. How the source made its calls: active means growth percent below 10; inactive means the rest.
Form entry, call: pick from active, inactive

Solved entries:
>>> label_value("CCCCOc1ccc(/C=N/Nc2cc(C)nc3ccc(Cl)cc23)cc1")
"active"
>>> label_value("O=C(Nc1ccc2ncnc(Nc3ccc(Oc4cccc(F)c4)c(Cl)c3)c2c1)c1ccc(CNCCO)cc1")
"active"
>>> label_value("CCCCCN1C=C/C(=C\\C(=O)N(C)c2cccc3ccccc23)c2ccccc21")
"inactive"
>>> label_value("COc1cc2nc(Cc3ccc(C)cc3)[nH]c(=O)c2cc1OC")
"inactive"

Please let me know the test result on file for CC(=O)OC1CCC2(C)C(CCC3C4CC=C(C(C)=O)C4(C)OC(=O)CC32)C1 (stereo unspecified) . active

State the result this test recorded for O=S(=O)(NCCCNc1nccc(-c2c(-c3cccc(O)c3)nc3occn23)n1)c1ccc(Br)cc1 . inactive

Hi, do you know how FC(F)(F)c1cccc(Oc2ccc(Nc3ncnc4ccc(OCCCN5CCOCC5)cc34)cc2Cl)c1 came out in this test? inactive

Check the results log: what was the call for COc1ccc(C(=O)c2cc3c(N)c(C(=O)Nc4cccc5ccccc45)sc3nc2C)cc1 ? inactive

Dear all, I need the recorded test outcome for CC1(C)NCCC[C@]2(C)[C@H]3CC=C4[C@@H]5C[C@@](C)(CO)CC[C@]5(C)CC[C@@]4(C)[C@]3(C)CC[C@@H]12 , thank you. inactive

Outcome logged for COc1cc2nc(-c3ccc(C(F)(F)F)cc3)cc(OCCCN3CCCCC3)c2cc1OC in this assay: inactive

Hey, what did the test say about CC1(C)CC[C@]2(C(=O)NCC#CCN3CCOCC3)CC[C@]3(C)C(=CC[C@@H]4[C@@]5(C)Cc6c([nH]c7ccccc67)C(C)(C)[C@@H]5CC[C@]43C)[C@@H]2C1 ? inactive
